- Tested on: HCC-2998 colon
- procedure summary: NCI tumour cell line growth inhibition, 48 h
Below, each entry is listed with its recorded GI50.
measured endpoint: GI50

molecule=CC#C/C(=N\OC[C@H]1COCCN1)c1ccc2ncnc(Nc3ccc(OCc4cccc(F)c4)c(Cl)c3)c2c1 result="1840 nM"
molecule=CC(C)CC(=O)Nc1n[nH]c2c1CN(C(=O)C1CCN(C)CC1)C2(C)C result="1170 nM"
molecule=O=C(/C=C/C=C/c1c(C2CC2)nc2ccccc2c1-c1ccc(F)cc1)c1cccs1 result="1990 nM"
molecule="Nc1ccccc1NC(=O)c1ccc(CCCC(=O)Nc2ccc(C3CC3N)cc2)cc1 (stereo not given)" result="1720 nM"
molecule=O=C(Nc1ccccc1O)c1ccc(CNc2ccnc(C(F)(F)F)c2)cc1 result="10200 nM"

----------
- System: CAKI-1 renal
- procedure summary: NCI tumour cell line growth inhibition, 48 h
measured endpoint: GI50

compound=COc1ccc(C[C@@H]2NC[C@@H](O)[C@@H]2OC(C)=O)cc1 result="30.3 µM"
compound="CCCCCCCCCCCCCCCC[N+](C)(CCO)Cc1cnc[nH]1 (stereo unspecified)" result="0.622 µM"
compound="COc1ccc(/C=C2\\CC(C)CC3C2=NN(C(C)=O)C3c2ccc(OC)cc2)cc1 (stereo unspecified)" result="30.5 µM"
compound=N#CC(C#N)N=Nc1ccc(Br)cc1 result="2.05 µM"
compound=CN1CCN(c2ccc(Nc3nc(N)c(C(=O)c4ccc5c(c4)OCCO5)s3)cc2)CC1 result="1.18 µM"
compound="Nc1nc2cc3ccc(C4CC(O)C(CO)O4)cc3cc2c(=O)[nH]1 (stereo unspecified)" result="> 100 µM"
compound=COC(=O)Nc1nc2ccc(C(=O)c3ccc(N(C)C4COC4)cc3)cc2[nH]1 result="0.435 µM"
compound="Cc1cc(O)c(C2=NN(c3ccc(S(N)(=O)=O)cc3)C(c3ccc(N(C)C)cc3)C2)c(C)c1Cl (stereo unspecified)" result="23.3 µM"
compound=O=[N+]([O-])c1ccccc1NC1c2ccccc2Oc2ccccc21 result="11 µM"
compound=NCCN.NCCN.O=C[O-].O=C[O-].[Co+3].[O-][Cl+3]([O-])([O-])[O-] result="> 100 µM"
compound=COC(=O)c1c(O)c([N+](=O)[O-])cc2c1c1c(n2Cc2ccccc2)C(=O)c2ccccc2C1=O result="38.2 µM"

----------
Record: GI50 reported on U251 CNS.
measured endpoint: GI50

molecule=COc1ccc(-c2nc(C(=O)c3ccccc3)n(CC(=O)c3ccccc3)c2-c2ccc(OC)cc2)cc1 result="> 100 µM"
molecule=O=Cc1ccc(-c2ccc(-c3nc4ccccc4o3)cc2)s1 result="29.1 µM"
molecule=O=c1c(O)cccc2cc(O)c(O)c(O)c12 result="6.03 µM"
molecule=COC(=O)Nc1nc2ccc(C(=O)c3ccc(N(C)C4COC4)cc3)cc2[nH]1 result="0.397 µM"
molecule=O=C(Nc1ccccc1O)c1ccc(CNc2ccnc(C(F)(F)F)c2)cc1 result="4.73 µM"
molecule=Cc1nc([C@H]2CC[C@H]3[C@@H]4CCC5=CC(=O)CC[C@]5(C)[C@H]4CC[C@]23C)cs1 result="5.27 µM"
molecule=COC(=O)c1c(O)c([N+](=O)[O-])cc2c1c1c(n2Cc2ccccc2)C(=O)c2ccccc2C1=O result="31 µM"
molecule=Cc1cc2cn3c4ccc(O)cc4[nH]c(=O)c3c2cc1C result="0.026 µM"
molecule=CN1C(=O)[C@@H](NC(=O)[C@H](CCC(F)(F)F)[C@H](CCC(F)(F)F)C(N)=O)N=C(c2ccccc2)c2ccccc21 result="> 100 µM"
molecule="COc1ccc(/C=C2\\CC(C)CC3C2=NN(C(C)=O)C3c2ccc(OC)cc2)cc1 (stereo not given)" result="14.4 µM"

----------
- Tested on: HL-60(TB) leukemia
- procedure summary: NCI tumour cell line growth inhibition, 48 h; in the data active = GI50 below about 0.43 µM; inactive = the rest
Outcomes: T for active, F for inactive

molecule=COc1ccc(C[C@@H]2NC[C@@H](O)[C@@H]2OC(C)=O)cc1 answer_label=F
molecule=COC(=O)Nc1nc2ccc(C(=O)c3ccc(N(C)C4COC4)cc3)cc2[nH]1 answer_label=T
molecule="Cc1cc(O)c(C2=NN(c3ccc(S(N)(=O)=O)cc3)C(c3ccc(N(C)C)cc3)C2)c(C)c1Cl (stereo not given)" answer_label=F
molecule=O=Cc1ccc(-c2ccc(-c3nc4ccccc4o3)cc2)s1 answer_label=F
molecule=Cc1cc(Nc2c3ccccc3nc3ccccc23)ccc1NS(C)(=O)=O answer_label=F

----------
In this section we review reported TGI values for a set of compounds.
- Test system: K-562 leukemia
- procedure summary: NCI tumour cell line growth inhibition, 48 h
measured endpoint: TGI

compound=c1ccc(P(CCP(c2ccccn2)c2ccccn2)c2ccccc2)cc1 target_entity="K-562 leukemia" measured_endpoint=TGI result="> 100 µM"
compound="COc1cc(/C=C2/SC(c3ccccc3)N(c3ccccc3)C2=O)cc(OC)c1OC (stereo unspecified)" target_entity="K-562 leukemia" measured_endpoint=TGI result="> 100 µM"
compound=N#CSc1c[nH]c2ccc(/C=C/C(=O)/C=C(/C=C/c3ccc4[nH]cc(SC#N)c4c3)OB(F)F)cc12 target_entity="K-562 leukemia" measured_endpoint=TGI result="> 100 µM"
compound="Clc1ccccc1C1=NN(c2ccccc2)C2c3ccccc3OCC12 (stereo unspecified)" target_entity="K-562 leukemia" measured_endpoint=TGI result="> 100 µM"
compound=OC[C@]1(n2nc3ccccc3n2)OC[C@@H]1c1ccccc1 target_entity="K-562 leukemia" measured_endpoint=TGI result="> 100 µM"
compound=CN(C)c1ncc(-c2ccc(C(F)(F)F)cc2)c(NC2CCCCCC2)n1 target_entity="K-562 leukemia" measured_endpoint=TGI result="41.1 µM"
compound="COc1ccc(/C=C2\\CC(C)CC3C2=NN(C(C)=O)C3c2ccc(OC)cc2)cc1 (stereo unspecified)" target_entity="K-562 leukemia" measured_endpoint=TGI result="96.3 µM"
compound=C/C(=N\Nc1nc2ccccc2n1C)c1cnccn1 target_entity="K-562 leukemia" measured_endpoint=TGI result="> 100 µM"
compound="O=C(CC1(O)C(=O)Nc2ccccc21)c1ccco1 (stereo unspecified)" target_entity="K-562 leukemia" measured_endpoint=TGI result="> 100 µM"
compound="Cc1nn(C(=O)c2ccncc2)c2c1C(c1ccccc1)SC(N)=N2 (stereo unspecified)" target_entity="K-562 leukemia" measured_endpoint=TGI result="> 10 µM"
compound=Cc1ccc2c(n1)C(=O)C=CC2=O target_entity="K-562 leukemia" measured_endpoint=TGI result="18 µM"
compound=COC1=CC(=O)C(OC)=C(OC)C1=O target_entity="K-562 leukemia" measured_endpoint=TGI result="6.05 µM"
compound=COP(=O)(Cc1ccccc1)Cc1ccccc1 target_entity="K-562 leukemia" measured_endpoint=TGI result="> 100 µM"
compound=CC1=C(C(=O)Nc2cc(=O)n(C)c(=O)n2C)C(c2ccc([N+](=O)[O-])cc2)C(C(=O)Nc2cc(=O)n(C)c(=O)n2C)=C(C)N1 target_entity="K-562 leukemia" measured_endpoint=TGI result="> 100 µM"
compound="COc1ccc(C(=O)C(c2ccc(OC)cc2)C2OC(=O)C(Cl)=C2Cl)cc1 (stereo unspecified)" target_entity="K-562 leukemia" measured_endpoint=TGI result="> 100 µM"
compound="C=C1C(=O)OC2/C=C(/C)C3CC(O)C(C)(CC(OC(=O)/C(C)=C/C)C12)O3 (stereo unspecified)" target_entity="K-562 leukemia" measured_endpoint=TGI result="> 28.8 µM"
compound="COC(=O)C1c2c(c3ccccc3n2C(=O)OC)CCN2CCC1C(S(=O)(=O)c1ccccc1)C2=O (stereo unspecified)" target_entity="K-562 leukemia" measured_endpoint=TGI result="> 100 µM"
compound="O=C(O)/C(Cl)=C(\\Cl)C(=O)NC1C2CC3CC(C2)CC1C3 (stereo unspecified)" target_entity="K-562 leukemia" measured_endpoint=TGI result="> 100 µM"
compound=Cc1oc(N)c(S(=O)(=O)c2ccc(Cl)cc2)c1C target_entity="K-562 leukemia" measured_endpoint=TGI result="> 100 µM"
compound=O=C(c1ccccc1)c1oc2ccc(Br)cc2c1-c1cnn(-c2ccccc2)c1 target_entity="K-562 leukemia" measured_endpoint=TGI result="> 100 µM"
compound=N=c1c2c(=S)n(-c3ccccc3)c(=S)n(-c3ccccc3)c2nc(SCCCN2CCN(c3cccc(Cl)c3)CC2)n1-c1ccccc1 target_entity="K-562 leukemia" measured_endpoint=TGI result="> 100 µM"

----------
- Test system: NCI-H460 lung
- procedure summary: NCI tumour cell line growth inhibition, 48 h
measured endpoint: TGI

compound=Cc1nccc2c3ccc(OCc4cn(-c5ccc(Cl)cc5)nn4)cc3n(CCCc3ccccc3)c12 measured_endpoint=TGI result="17.9 µM"
compound=COc1cc(C)cc2c1c(=O)c1ccccc1n2C measured_endpoint=TGI result="> 100 µM"
compound="COc1cc(C=C2C(C)=NN(c3cccc(Cl)c3)C23C(Cl)C(=O)N3c2nc3ccccc3s2)ccc1O (centres undefined)" measured_endpoint=TGI result="66.1 µM"
compound=COc1cc(C(=O)O[C@@H]2[C@@H](OC(=O)c3cc(OC)c(OC)c(OC)c3)[C@@H](OC)O[C@@H]3CO[C@@H](c4ccccc4)O[C@@H]23)cc(OC)c1OC measured_endpoint=TGI result="> 100 µM"
